TEST PROTOCOL: Partition coefficient (logP)
Assay type: physicochemical
CONDITIONS: octanol/water
Everything with logP lower than 6 is not fulfilled; everything else, including exactly 6, is fulfilled.

Determine whether this molecule has logP no lower than 6: "CCCCCCCN(CCCCCSc1nnc(-c2ccccc2)c(-c2ccccc2)n1)C(=O)Nc1ccc(F)cc1F"
fulfilled

Reported logP at or above 6? "CCCCCCCN(CCCCCSc1ncccn1)C(=O)Nc1ccc(F)cc1F"
not fulfilled

Dear colleague, could you confirm whether CCCCCCCN(CCCCCSC1N=C(c2ccccc2)c2ccccc2NC1=O)C(=O)Nc1ccc(F)cc1F (stereo unspecified) has logP at or above 6?
fulfilled

Confirm if logP reported for the molecule "CCCCCCN(CCCCCSc1nc2ccccc2n1C)C(=O)Nc1ccc(F)cc1F" is 6 or above.
fulfilled

Exam item: decide whether the reported logP for "CCCCCCN(CCCCCSc1nc2c(=O)n(C)c(=O)n(C)c2[nH]1)C(=O)NC(C)C" is at least 6.
not fulfilled

Given "CCCCCCN(CCCCCSc1nc2cc(C)ccc2[nH]1)C(=O)Nc1ccc(F)cc1F" , state whether its logP is at least 6.
fulfilled

Reported logP at or above 6? "CCCCCCN(CCCCCSc1nc2c[nH]cnc-2n1)C(=O)Nc1ccc(F)cc1F"
not fulfilled

Does "CCCCCCCN(CCCCCSc1nc(N)c2c[nH]nc2n1)C(=O)Nc1ccc(F)cc1F" have a reported logP of at least 6?
not fulfilled

Decide: is the reported value of logP for CCCCCCCN(CCCCCSC1N=C(c2ccccc2)c2ccccc2NC1=O)C(=O)NC(C)C (stereo unspecified) equal to or greater than 6?
fulfilled

Item "CCCCCCCN(CCCCCSc1nc(O)cc(Cc2ccccc2)n1)C(=O)NC(C)C" with logP of 6 or above?
fulfilled

The reported numbers originate from ChEMBL document CHEMBL1128038.
